Value source: patent US20080107719A1

# assay: Half life (t1/2) in acidic and basic PH conditions
# Assay type: physicochemical
# settings: buffer, pH 1; PH1; read-out: t1/2 (days) PH1 (converted)
parameter: half-life (days)
Value expressed in days; do not type the unit.

-- ask Please give measured half-life of the following entry: Cc1cccc(C(C)c2c[nH]c(=S)[nH]2)c1C (stereo not shown) [AGN 203818]
-- reply 51

###

# assay: Solubility in water
# settings: water
parameter: solubility (µg/mL)
Value expressed in µg/mL; do not type the unit.

-- ask Please give measured solubility of the following entry: Cc1cccc(C(C)c2c[nH]c(=S)[nH]2)c1C (stereo not shown)
-- reply 24.5

###

# assay: Solubility in PG
# Format: physicochemical
# settings: organic solvent or mixture
parameter: solubility

-- ask Please give measured solubility of the following entry: Cc1cccc(C(C)c2c[nH]c(=S)[nH]2)c1C (stereo not shown)
-- reply > 5100 µg/mL
